Reference source: patent US9073875B2

target: IDO1 (Homo sapiens); construct: HeLa cells in which IDO1 expression is induced by IFN-γ; endogenous in cells; experiment: Cellular IDO1 Inhibition Assay (L-kynurenine production by IFN-γ-stimulated HeLa cells); conditions: IDO1 induced by IFN-γ, 250 μM L-tryptophan, 48 hours, L-kynurenine by Ehrlich's reagent, maximal concentration 40 μM
Sequence (P14902 whole entry): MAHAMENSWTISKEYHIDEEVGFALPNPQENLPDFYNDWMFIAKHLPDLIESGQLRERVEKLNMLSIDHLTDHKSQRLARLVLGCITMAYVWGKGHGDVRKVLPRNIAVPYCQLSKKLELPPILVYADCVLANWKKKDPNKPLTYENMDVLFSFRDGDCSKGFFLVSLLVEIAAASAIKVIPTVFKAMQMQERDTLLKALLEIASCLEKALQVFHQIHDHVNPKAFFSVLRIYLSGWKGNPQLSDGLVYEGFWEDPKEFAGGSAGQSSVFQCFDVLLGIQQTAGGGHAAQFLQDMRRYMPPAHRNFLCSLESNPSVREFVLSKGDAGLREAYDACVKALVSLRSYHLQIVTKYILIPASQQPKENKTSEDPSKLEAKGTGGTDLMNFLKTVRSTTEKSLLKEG
Entries and their IC50

# count of solved cases: 5
Return reported IC50; argument: Clc1ccc(Nc2c[nH]nn2)c(OCCN2CCOCC2)c1 [Compound I-10]
100 to 1000 nM

One more compound: CC(C)(Cc1cc(Cl)ccc1Nc1cn[nH]n1)C(=O)O [Compound I-33]
1000 to 40000 nM

One more compound: Brc1ccc(Nc2c[nH]nn2)cc1 [Compound I-3]
< 100 nM

One more compound: O=C(O)CCc1cc(Cl)ccc1Nc1cn[nH]n1 [Compound I-31]
1000 to 40000 nM

One more compound: Cc1cc(Cl)ccc1Nc1c[nH]nn1 [Compound I-5]
< 100 nM

New cases:
Return reported IC50; argument: Clc1ccc(Nc2cnn[nH]2)c(Cl)c1 [Compound I-27]
1000 to 40000 nM

====

molecular target: IDO1 (Homo sapiens); construct: HeLa cells in which IDO1 expression is induced by IFN-γ; endogenous in cells; assay: Cellular IDO1 Inhibition Assay (L-kynurenine production by IFN-γ-stimulated HeLa cells); conditions: IDO1 induced by IFN-γ, 250 μM L-tryptophan, 48 hours, L-kynurenine by Ehrlich's reagent, maximal concentration 40 μM
Entries and their IC50

# count of solved cases: 4
Return reported IC50; argument: Clc1ccc(Nc2cnn[nH]2)c(CCN2CCOCC2)c1
100 to 1000 nM

One more compound: Fc1cc(Nc2c[nH]nn2)ccc1Cl
100 to 1000 nM

One more compound: CN(Cc1cc(Cl)ccc1Nc1c[nH]nn1)C(=O)OC(C)(C)C
1000 to 40000 nM

One more compound: CN(C)S(=O)(=O)CCc1cc(Cl)ccc1Nc1cnn[nH]1
100 to 1000 nM

New cases:
Return reported IC50; argument: CS(=O)(=O)NCc1cc(Cl)ccc1Nc1cnn[nH]1
1000 to 40000 nM

One more compound: C=Cc1cc(Cl)ccc1Nc1cnn[nH]1
< 100 nM

One more compound: CC(C)C(Cc1cc(Cl)ccc1Nc1cn[nH]n1)C(=O)O (centres unmarked)
1000 to 40000 nM

One more compound: Cc1cc(Cl)cc(Nc2cnn[nH]2)c1
100 to 1000 nM

One more compound: Fc1ccc(Nc2cnn[nH]2)cc1Br
100 to 1000 nM

====

target: IDO1 (Homo sapiens); construct: HeLa cells in which IDO1 expression is induced by IFN-γ; endogenous in cells; experiment: Cellular IDO1 Inhibition Assay (L-kynurenine production by IFN-γ-stimulated HeLa cells); details: IDO1 induced by IFN-γ, 250 μM L-tryptophan, 48 hours, L-kynurenine by Ehrlich's reagent, maximal concentration 40 μM
pIC50: −log10 of the molar value.
Entries and their pIC50

Return reported pIC50; argument: O=C(O)C1CC(Cc2cc(Cl)ccc2Nc2cn[nH]n2)C1 (centres unmarked)
4.40 to 6.00

One more molecule: COCCc1cc(Cl)ccc1Nc1cn[nH]n1
> 7.00

One more molecule: CN1CCN(CCOc2cc(Cl)ccc2Nc2cnn[nH]2)CC1
6.00 to 7.00

One more molecule: CC(C)(C)C(Cc1cc(Cl)ccc1Nc1cn[nH]n1)C(=O)O (centres unmarked)
4.40 to 6.00

One more molecule: Clc1ccccc1Nc1cnn[nH]1
4.40 to 6.00

New cases:
Return reported pIC50; argument: Cc1ccc(Cl)cc1Nc1cnn[nH]1
> 7.00

One more molecule: CCc1cc(Nc2cnn[nH]2)ccc1Cl
6.00 to 7.00

One more molecule: Clc1cccc(Nc2cnn[nH]2)c1
6.00 to 7.00
